B1: LINE1-mini (parent)
chain: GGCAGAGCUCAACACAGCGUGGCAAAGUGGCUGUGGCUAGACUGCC

Variants of: B1
assay_explanation: self-cleavage, relative activity (ratio to wild type); higher = more cleavage; in vitro, sequencing; the parent is a self-cleaving ribozyme
Everything with self-cleavage lower than 0.2 is Condition not met; everything else, including exactly 0.2, is Condition met.

| mutant | discrete_label |
| --- | --- |
| A26C U32C | Condition met |
| C15U U38A | Condition met |
| G35C U38C | Condition not met |

Exercise: Test whether the variant G5C G17U records self-cleavage of 0.2 or higher.
Solution: Condition not met

Exercise: Test whether the variant G19A C23A records self-cleavage of 0.2 or higher.
Solution: Condition met

Exercise: Test whether the variant G29A U43C records self-cleavage of 0.2 or higher.
Solution: Condition not met

Exercise: Test whether the variant G21U G35A records self-cleavage of 0.2 or higher.
Solution: Condition not met

Exercise: Test whether the variant A11G A25G records self-cleavage of 0.2 or higher.
Solution: Condition not met

Exercise: Test whether the variant A24C G36U records self-cleavage of 0.2 or higher.
Solution: Condition not met

Exercise: Test whether the variant U20C G36U records self-cleavage of 0.2 or higher.
Solution: Condition not met

Exercise: Test whether the variant U9A U20G records self-cleavage of 0.2 or higher.
Solution: Condition not met
